assayed-system: Indoleamine 2,3-dioxygenase 1 (Homo sapiens)
Sequence (P14902 whole entry): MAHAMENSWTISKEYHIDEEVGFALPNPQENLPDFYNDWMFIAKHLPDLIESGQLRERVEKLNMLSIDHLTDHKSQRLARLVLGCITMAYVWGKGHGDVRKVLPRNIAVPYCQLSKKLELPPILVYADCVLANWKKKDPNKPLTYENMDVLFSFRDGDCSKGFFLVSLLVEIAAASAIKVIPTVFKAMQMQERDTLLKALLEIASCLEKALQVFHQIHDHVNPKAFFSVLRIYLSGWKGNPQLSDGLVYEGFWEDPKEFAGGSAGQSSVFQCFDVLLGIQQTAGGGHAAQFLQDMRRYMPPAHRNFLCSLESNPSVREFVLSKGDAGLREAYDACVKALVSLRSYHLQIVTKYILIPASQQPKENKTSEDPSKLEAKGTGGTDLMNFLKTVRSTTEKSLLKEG
test-name: Inhibition of IDO1 in IFN-gamma stimulated human HeLa cells assessed as reduction in kynurenine production using L-tryptophan as substrate incubated for 24 hrs
Type: cell-based
quantity-name: pIC50
Kindly note that pIC50 refers to -log10 of the concentration in mol/L and answer with the value alone.

Need pIC50 of `COc1ccccc1NCC(=O)N/N=C/c1c(O)ccc2ccccc12` , thanks.
5.07

`CCOc1ccc(/C=N/NC(=O)c2c(O)ccc3ccccc23)cc1` , same question.
4.56

`COc1ccc(NC(=O)Cn2cnc3scc(-c4ccc(C)cc4)c3c2=O)cc1` , same question.
5.49

`O=C(CSc1ccc(Cl)cc1)N/N=C/c1c(O)ccc2ccccc12` , same question.
5.22

CCC(Nc1ccc(Cl)cc1C)C(=O)N/N=C/c1cccc2ccccc12 (stereo unspecified) , same question.
5.66
